Provide the recorded composite z-score for the entries that follow.
- Tested on: Fibrinogen (Alexa647-labelled)
- protocol-notes: fibrinogen binders on compound microarrays, profiling panel, artefact control for SMM control-protein annotation, biochemical, small-molecule microarray, 635/667 nm fluorescence (AID 1131);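 further: z-score merges 667 nm fluorescence with per-spot signal-to-noise over triplicate slides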
- protocol-conditions: fibrinogen-A647 binding fluorescence, higher = more signal
Answers are plain numbers.

compound | target-or-test-system | composite z-score
CCOC(=O)[C@H]1C/C=C/C[C@H](C(=O)OCC)C(=O)O[C@H]2[C@@H](OC)O[C@H](CO)[C@@H](OC(=O)c3c(OC)cccc3OC)[C@@H]2OC1=O | Fibrinogen (Alexa647-labelled) | 0.661
O=C(NCCN1CCOCC1)[C@@H]1c2ccccc2C(=O)N(C2CCCCC2)[C@H]1c1ccc(CO)cc1 | Fibrinogen (Alexa647-labelled) | 0.74
COC(=O)[C@@]1(Cc2ccc(OC)cc2)[C@H]2c3cc(C(=O)N4CCCC4)n(Cc4ccc(O)c(OC)c4)c3C[C@H]2CN1C(=O)c1ccccc1 | Fibrinogen (Alexa647-labelled) | 0.724
COCCOC(=O)N1C(=O)[C@@]2(c3cc(C#CC4(O)CCCCCC4)ccc31)[C@H](c1ccc(OCCO)cc1)N1[C@H](c3ccccc3)[C@H](c3ccccc3)OC(=O)[C@H]1[C@@H]2C(=O)N1CCN(c2ncccn2)CC1 | Fibrinogen (Alexa647-labelled) | 0.956

Below is a list of compounds. For each, state its recorded composite z-score.
1. CCOC(=O)C[C@H]1[C@H](OC(=O)c2ccc(C(=O)c3ccccc3)cc2)[C@@H](NC(=O)c2ccccc2)c2cc(OCCCO)ccc2N1C(=O)Cc1ccc(OC)cc1
2. C=CCC(OC(C)=O)[C@@H]1[C@@H](N(Cc2cc3ccccc3o2)C(=O)c2cccc3ccccc23)c2cc(OCCCO)ccc2N1C(=O)c1ccc(-c2ccccc2)cc1 (stereo partly specified)

[A]
1. 0.204
2. -0.827

====

- target-or-test-system: Concanavalin-A (Canavalia ensiformis) (UniProt P02866)
- Sequence (P02866 whole entry, looked up): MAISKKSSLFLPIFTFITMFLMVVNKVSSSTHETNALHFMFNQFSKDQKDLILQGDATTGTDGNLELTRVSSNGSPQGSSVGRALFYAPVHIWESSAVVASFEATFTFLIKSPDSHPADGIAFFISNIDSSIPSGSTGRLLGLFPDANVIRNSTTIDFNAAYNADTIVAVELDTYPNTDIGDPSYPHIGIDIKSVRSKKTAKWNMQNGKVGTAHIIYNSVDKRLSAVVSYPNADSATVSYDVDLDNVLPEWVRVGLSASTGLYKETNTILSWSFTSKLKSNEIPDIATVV
- protocol-notes: ConA small-molecule binders, primary screen, artefact control for SMM control protein annotation, biochemical, small-molecule microarray, Alexa647 label, 635 nm (AID 1127);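 further: z combines 667 nm emission intensity with signal-to-noise across three replicate slides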
- protocol-conditions: ConA-A647 binding fluorescence, higher = more signal
Provide the recorded composite z-score for the entries that follow.
Answers are plain numbers.

molecule | composite z-score
C=CCC(OC(C)=O)[C@@H]1[C@@H](N(Cc2cc3ccccc3o2)C(=O)c2cccc3ccccc23)c2cc(OCCCO)ccc2N1C(=O)c1ccc(-c2ccccc2)cc1 (stereo not given in full) | -0.505
C=CCOC(=O)[C@H]1[C@@H]2C(=O)O[C@@H](c3ccccc3)[C@@H](c3ccccc3)N2[C@@H](c2ccc(OCCOC(=O)[C@H]3C[C@H]4C(=O)N[C@@H](CCCCN(C)C)C(=O)N4[C@H]3c3ccc(O)cc3)cc2)[C@]12C(=O)Nc1ccc(I)cc12 | 1.15
COc1ccc(CCNC(=O)[C@@]2(C)c3ccccc3C(=O)N(C(C)C)[C@H]2c2ccc(CO)cc2)cc1 | 0.613
COC(=O)[C@@]1(Cc2ccccc2)N=C(c2ccc(OCCCO)cc2)O[C@H]1c1ccccc1 | 0.889
C=CC[C@@]12N=C(c3ccc(OCCCO)cc3)O[C@@H]1c1ccccc1N(C)C2=O | 0.838

Below is a list of molecules. For each, state its recorded composite z-score.
1. NC(=O)N1C(=O)C2C(C1=O)C1C=C(c3ccc(CO)cc3)C2C(c2cccs2)N1Cc1cccc(OC(F)(F)F)c1 (stereo not given)
2. CC1CC/C=C\[C@H]2OC34C=CCN(C(C)(C)C)C(=O)[C@H]3N(C(C)CO)C(=O)[C@@H]4C2C(=O)O1 (stereo not given in full)
3. CC1CC/C=C\[C@H]2OC34C=CCN(C(C)(C)C)C(=O)[C@H]3N(CCO)C(=O)[C@@H]4C2C(=O)O1 (stereo not given in full)
4. CCCC=C(CCC)[C@@H](NC(=O)c1cccs1)c1ccc(C(F)(F)F)cc1
5. COc1ccc(C(O)C2C=CC3C(=O)N(Cc4ccccc4)C(=O)C3N2n2cnnc2)cc1OCc1ccccc1 (stereo not given)
6. CCCCCCc1nc(-c2ccc(OC)nc2)cc2c1[Si](C(C)C)(C(C)C)O[C@H]2c1ccccc1
7. O[C@@H](Cc1ccccc1)[C@H]1C2C=CCCC=C2CN1Cc1cccc(Cl)c1 (stereo not given in full)
8. COc1ccc(C#Cc2ccc3c(c2)[C@]2(C(=O)N3)[C@H](C(=O)NC[C@H](O)c3ccccc3)[C@H]3C(=O)O[C@H](c4ccccc4)[C@H](c4ccccc4)N3[C@@H]2c2ccc(O)cc2)cc1

[A]
-0.0204
-2.17
-2.33
0.79
0.681
0.0837
0.609
1.13

Below is a list of molecules. For each, state its recorded composite z-score.
1. CO[C@H]1O[C@H](CO)[C@@H](OC(=O)Nc2cccc(F)c2)[C@H](OC(=O)Nc2ccccc2)[C@@H]1OC(=O)Nc1ccccc1
2. C=C(CCCC)/C(=C/C[C@H](OC(=O)c1ccncc1)c1ccccc1OCCO)c1cnc2ccccc2c1

[A]
1. 0.724
2. 1.14
